The reported numbers originate from patent US11155546B2.

Below are compounds with their pIC50 as measured on wild-type EGFR kinase (Homo sapiens (Human)).
Sequence (P00533 25-1210): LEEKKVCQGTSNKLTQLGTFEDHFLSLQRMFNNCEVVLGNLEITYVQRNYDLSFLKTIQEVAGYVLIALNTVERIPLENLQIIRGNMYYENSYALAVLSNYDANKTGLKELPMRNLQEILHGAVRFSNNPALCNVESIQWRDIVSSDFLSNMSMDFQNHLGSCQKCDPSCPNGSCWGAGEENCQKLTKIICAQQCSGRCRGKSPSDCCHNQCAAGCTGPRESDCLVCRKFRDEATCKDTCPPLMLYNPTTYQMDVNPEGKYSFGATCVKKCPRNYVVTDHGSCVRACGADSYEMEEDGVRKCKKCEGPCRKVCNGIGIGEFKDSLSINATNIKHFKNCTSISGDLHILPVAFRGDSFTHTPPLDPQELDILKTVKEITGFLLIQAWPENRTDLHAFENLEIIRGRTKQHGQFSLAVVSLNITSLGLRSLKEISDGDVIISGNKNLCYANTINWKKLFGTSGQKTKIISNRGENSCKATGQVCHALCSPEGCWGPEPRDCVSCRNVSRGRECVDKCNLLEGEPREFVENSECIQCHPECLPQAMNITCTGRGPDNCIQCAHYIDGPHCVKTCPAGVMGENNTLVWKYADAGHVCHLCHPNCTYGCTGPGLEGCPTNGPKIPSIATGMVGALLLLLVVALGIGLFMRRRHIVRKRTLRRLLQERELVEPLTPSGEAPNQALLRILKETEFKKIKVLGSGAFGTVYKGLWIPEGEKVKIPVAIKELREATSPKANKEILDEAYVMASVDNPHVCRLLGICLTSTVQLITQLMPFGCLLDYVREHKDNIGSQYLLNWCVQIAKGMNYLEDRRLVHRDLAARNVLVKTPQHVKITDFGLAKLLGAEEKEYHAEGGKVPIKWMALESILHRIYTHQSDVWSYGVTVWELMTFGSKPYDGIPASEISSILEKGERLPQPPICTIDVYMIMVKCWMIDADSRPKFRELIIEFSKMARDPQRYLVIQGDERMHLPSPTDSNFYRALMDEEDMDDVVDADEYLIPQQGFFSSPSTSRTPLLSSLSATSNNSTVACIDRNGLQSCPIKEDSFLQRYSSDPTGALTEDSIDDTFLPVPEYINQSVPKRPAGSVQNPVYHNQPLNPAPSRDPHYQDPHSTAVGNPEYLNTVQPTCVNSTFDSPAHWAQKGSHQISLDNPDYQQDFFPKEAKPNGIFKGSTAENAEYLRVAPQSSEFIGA
Schema: pIC50 number; meaning minus log10 of the concentration expressed in molar units.

Give the reported pIC50 for this compound. C=CC(=O)N1CCCC(Nc2nc(Nc3ccc(N4CCN(C)CC4)nc3)c3c(c2F)CNC3=O)C1 (stereo not shown) [Compound G-18]
5.80

Give the reported pIC50 for this compound. C=CC(=O)N1CCCC(Nc2nc(Nc3ccc(OCCOC)cc3)c3c(c2F)CNC3=O)C1 (stereo not shown) [Compound G-2]
5.79

Give the reported pIC50 for this compound. C=CC(=O)N1CCCC(N(C)c2nc3c(c(Nc4cnn(C)c4)n2)C(=O)NC3)C1 (stereo not shown) [Compound G-75]
5.79

Give the reported pIC50 for this compound. C=CC(=O)N1CCCC(Nc2nc(Nc3ccc(N4CCOCC4)cc3F)c3c(c2F)CNC3=O)C1 (stereo not shown) [Compound G-31]
5.10
